Answer each item with its documented polymerase ribozyme fitness (log ratio).
B1: TPR 5TU (parent)
chain: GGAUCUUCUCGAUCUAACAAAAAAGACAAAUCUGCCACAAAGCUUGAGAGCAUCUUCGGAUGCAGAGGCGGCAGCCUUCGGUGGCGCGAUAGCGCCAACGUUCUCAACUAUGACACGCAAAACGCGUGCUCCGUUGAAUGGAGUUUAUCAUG

Variants of: B1
assay.summary: polymerase ribozyme fitness, log enrichment relative to wild type (log ratio); higher = more active; in vitro selection for triplet polymerase activity
Fewer inactive variants are shown than the library holds.

// fetch polymerase ribozyme fitness (log ratio) given entry A47C U56A U78A U90G ≤ -4.2

// fetch polymerase ribozyme fitness (log ratio) given entry A23G A49U A60G A119U A120U A122C -3.98

// fetch polymerase ribozyme fitness (log ratio) given entry U6G C18G A66C G68C G88C G152C ≤ -4.2

// fetch polymerase ribozyme fitness (log ratio) given entry C36A C63U -4.08

// fetch polymerase ribozyme fitness (log ratio) given entry G48A G67U G80C C85U C132U ≤ -4.2

// fetch polymerase ribozyme fitness (log ratio) given entry C27U A28U U53G C93A ≤ -4.2

// fetch polymerase ribozyme fitness (log ratio) given entry C57A A121U -0.0826

// fetch polymerase ribozyme fitness (log ratio) given entry A17C A52C C79A G81A G84U A110G G112C ≤ -4.2

// fetch polymerase ribozyme fitness (log ratio) given entry C18U G62A G67A U77G C87A U101C C123U G136A ≤ -4.2

// fetch polymerase ribozyme fitness (log ratio) given entry A24U C93U U104G -1.84

// fetch polymerase ribozyme fitness (log ratio) given entry C54G C99G G136U -3.14

// fetch polymerase ribozyme fitness (log ratio) given entry C35A A47U C57U U101A C114G C123U ≤ -4.2

// fetch polymerase ribozyme fitness (log ratio) given entry G86A U90G ≤ -4.2

// fetch polymerase ribozyme fitness (log ratio) given entry A40C C85G C87U C93U U148C ≤ -4.2

// fetch polymerase ribozyme fitness (log ratio) given entry A17C U31C A47C U55A C76U G84U -3.49

// fetch polymerase ribozyme fitness (log ratio) given entry C27U U33C A73G C85U -0.859

// fetch polymerase ribozyme fitness (log ratio) given entry U31A G70A C76A C96U ≤ -4.2

// fetch polymerase ribozyme fitness (log ratio) given entry C14G U15C C18U A39U A49C G80C A110C ≤ -4.2

// fetch polymerase ribozyme fitness (log ratio) given entry U15G A49G C87U G136A -1.17

// fetch polymerase ribozyme fitness (log ratio) given entry U6G A26U G84C -2.97

// fetch polymerase ribozyme fitness (log ratio) given entry U9G U15C A19U C35G A113U C132U ≤ -4.2

// fetch polymerase ribozyme fitness (log ratio) given entry G11U C14G G46A U55A C87U ≤ -4.2

// fetch polymerase ribozyme fitness (log ratio) given entry C10A C27G G46A C75A C96A ≤ -4.2

// fetch polymerase ribozyme fitness (log ratio) given entry A40C G126A G128U -4.14

// fetch polymerase ribozyme fitness (log ratio) given entry A60C C93A A98U A122C -2.61

// fetch polymerase ribozyme fitness (log ratio) given entry G94A U101G U148A -4.03

// fetch polymerase ribozyme fitness (log ratio) given entry G67U C75A G92A G124U ≤ -4.2

// fetch polymerase ribozyme fitness (log ratio) given entry A20C A113U U127A ≤ -4.2

// fetch polymerase ribozyme fitness (log ratio) given entry A47C C51U C54U C72U G84U -3.18

// fetch polymerase ribozyme fitness (log ratio) given entry C43A G94C G143U ≤ -4.2

// fetch polymerase ribozyme fitness (log ratio) given entry A49C U56A C69A C99A ≤ -4.2

// fetch polymerase ribozyme fitness (log ratio) given entry C14G A47C C54G U56A C93A C108U G124U G128A ≤ -4.2

// fetch polymerase ribozyme fitness (log ratio) given entry C8G A52G -3.17

// fetch polymerase ribozyme fitness (log ratio) given entry U55G G59C G86A C103U U146C -2.47

// fetch polymerase ribozyme fitness (log ratio) given entry C51A U56A C95A A98U -1.46

// fetch polymerase ribozyme fitness (log ratio) given entry G83A A89G U109G U130G C132G ≤ -4.2

// fetch polymerase ribozyme fitness (log ratio) given entry A12C U13C A26C C27G G70A C96G ≤ -4.2

// fetch polymerase ribozyme fitness (log ratio) given entry C18U G34A G48U C75U G94C G141U ≤ -4.2

// fetch polymerase ribozyme fitness (log ratio) given entry G48A U55A A119U G124U U144C -1.13

// fetch polymerase ribozyme fitness (log ratio) given entry G42C G92A ≤ -4.2

// fetch polymerase ribozyme fitness (log ratio) given entry A37C A41U C93U C118A -2.93

// fetch polymerase ribozyme fitness (log ratio) given entry A29U U55A G62C C116G ≤ -4.2

// fetch polymerase ribozyme fitness (log ratio) given entry A12U G58U A60U G86C A107U G133U C149G ≤ -4.2

// fetch polymerase ribozyme fitness (log ratio) given entry A52G G92C G117U A137G U144A ≤ -4.2

// fetch polymerase ribozyme fitness (log ratio) given entry A20C C36A C51U U55G C69G A73U G81A C96U G141U ≤ -4.2

// fetch polymerase ribozyme fitness (log ratio) given entry A47C G92A A107G ≤ -4.2

// fetch polymerase ribozyme fitness (log ratio) given entry C8U G67A U82G U90G C96A C105A C116A C125U U135A A147C U148G ≤ -4.2

// fetch polymerase ribozyme fitness (log ratio) given entry G62U C95A -1.1

// fetch polymerase ribozyme fitness (log ratio) given entry A3C A17C A19U G25C C93U A115G A120U ≤ -4.2

// fetch polymerase ribozyme fitness (log ratio) given entry U55A A98U -0.0691

// fetch polymerase ribozyme fitness (log ratio) given entry A52C U53A U148G ≤ -4.2

// fetch polymerase ribozyme fitness (log ratio) given entry U9C A24C A40C C93A C105G G141C ≤ -4.2

// fetch polymerase ribozyme fitness (log ratio) given entry C14U A39C G71C C85U A97G ≤ -4.2

// fetch polymerase ribozyme fitness (log ratio) given entry G58U C105U U134A A137U U144A ≤ -4.2

// fetch polymerase ribozyme fitness (log ratio) given entry G25U C76G G92A A119U U145A C149A U151G ≤ -4.2

// fetch polymerase ribozyme fitness (log ratio) given entry A19C G126U U145A -0.56

// fetch polymerase ribozyme fitness (log ratio) given entry C85U C131U G143U -2.54

// fetch polymerase ribozyme fitness (log ratio) given entry A47G C93A C131U U134C -0.603

// fetch polymerase ribozyme fitness (log ratio) given entry U15G C27G C76U C87G ≤ -4.2

// fetch polymerase ribozyme fitness (log ratio) given entry A40G U55G U56A G88C ≤ -4.2

// fetch polymerase ribozyme fitness (log ratio) given entry A26C A41G A47C C69G G83A C93U G124U ≤ -4.2

// fetch polymerase ribozyme fitness (log ratio) given entry C36U A64G G94A A110G -4.2

// fetch polymerase ribozyme fitness (log ratio) given entry G11C A41C C95A U146G -3.34

// fetch polymerase ribozyme fitness (log ratio) given entry A107G G140U U151A ≤ -4.2

// fetch polymerase ribozyme fitness (log ratio) given entry G11C G25U A52C C54U C95U A107G U144A ≤ -4.2

// fetch polymerase ribozyme fitness (log ratio) given entry U61G G92C C95U C105U A106C U109C A138G ≤ -4.2

// fetch polymerase ribozyme fitness (log ratio) given entry U45A U77G G84U C118U ≤ -4.2

// fetch polymerase ribozyme fitness (log ratio) given entry U45A C85G -3.95

// fetch polymerase ribozyme fitness (log ratio) given entry A19U G46A G58C A97U U134A ≤ -4.2

// fetch polymerase ribozyme fitness (log ratio) given entry C8U C10G C35G C57A A66U G86U U134C U139C U148A ≤ -4.2

// fetch polymerase ribozyme fitness (log ratio) given entry A37C A49C G124A U130G ≤ -4.2

// fetch polymerase ribozyme fitness (log ratio) given entry A16G G128U -3.4

// fetch polymerase ribozyme fitness (log ratio) given entry C38U G42C A52U U61G G133U ≤ -4.2

// fetch polymerase ribozyme fitness (log ratio) given entry U33G C54U C96G A147U -3.24

// fetch polymerase ribozyme fitness (log ratio) given entry U9C A40C U56A C96G U101C U134C ≤ -4.2

// fetch polymerase ribozyme fitness (log ratio) given entry U6G A60C A73C C87A C118U ≤ -4.2

// fetch polymerase ribozyme fitness (log ratio) given entry C85U U101G C125U -0.351

// fetch polymerase ribozyme fitness (log ratio) given entry U33A A52G A60U G84A C95G U109G A115U G133U G140C U146G ≤ -4.2

// fetch polymerase ribozyme fitness (log ratio) given entry A47G C87U U101C 0.535

// fetch polymerase ribozyme fitness (log ratio) given entry A60U G86A A150C ≤ -4.2

// fetch polymerase ribozyme fitness (log ratio) given entry A12G C116G G126U 1.17

// fetch polymerase ribozyme fitness (log ratio) given entry G88A C96A C103U ≤ -4.2

// fetch polymerase ribozyme fitness (log ratio) given entry A26U C36G U134A G143U U144C ≤ -4.2

// fetch polymerase ribozyme fitness (log ratio) given entry U13C G58A 0.452

// fetch polymerase ribozyme fitness (log ratio) given entry G48C G62C C108G A137U U146A ≤ -4.2

// fetch polymerase ribozyme fitness (log ratio) given entry C27U A41C G81U C96A -2.31

// fetch polymerase ribozyme fitness (log ratio) given entry U7C U53G G86C A106G A150C ≤ -4.2

// fetch polymerase ribozyme fitness (log ratio) given entry C38A G58A A60G C93U C95A C125G -3.67

// fetch polymerase ribozyme fitness (log ratio) given entry C69A C76G C79A U102A G141C ≤ -4.2

// fetch polymerase ribozyme fitness (log ratio) given entry U15C A91U ≤ -4.2

// fetch polymerase ribozyme fitness (log ratio) given entry G50C C87A C114G A150C ≤ -4.2
